Below: a set of entries, each annotated with reported inhibition at 10 µM.
System: M14
Experiment: NCI-60 antiproliferative screen (SRB)
Type: cell-based, human
Settings: Homo sapiens; 10 µM single dose, 48 h; M14 (Melanoma); read-out: Growth inhibition (%)
Measured Parameter: inhibition at 10 µM (%)

>>> numeric_readout("O=C1Nc2ccc(Cl)cc2C1=Cc1ccc(OCc2ccccc2)cc1 (mixture of isomers)")
7.34
>>> numeric_readout("O=C1Nc2cc(Cl)ccc2C1=Cc1ccc(OCc2cccnc2)cc1 (mixture of isomers)")
77.1
>>> numeric_readout("O=C1Nc2ccc(Cl)cc2C1=Cc1ccc(OCc2cccnc2)cc1 (mixture of isomers)")
12.2
>>> numeric_readout("O=C1Nc2ccccc2C1=Cc1ccc(OCc2cccnc2)cc1 (mixture of isomers)")
37.6
>>> numeric_readout("O=C1Nc2ccc(F)cc2C1=Cc1ccc(OCc2ccccn2)cc1 (mixture of isomers)")
-5.09
>>> numeric_readout("O=C1Nc2ccc(F)cc2C1=Cc1ccc(OCc2ccccc2)cc1 (mixture of isomers)")
3.39
>>> numeric_readout("O=C1Nc2ccc(Cl)cc2C1=Cc1ccc(OCc2ccccn2)cc1 (mixture of isomers)")
10.1
>>> numeric_readout("O=C1Nc2cc(Cl)ccc2C1=Cc1ccc(OCc2ccccc2)cc1 (mixture of isomers)")
3.83
>>> numeric_readout("O=C1Nc2ccc(F)cc2C1=Cc1ccc(OCc2cccnc2)cc1 (mixture of isomers)")
67.1
>>> numeric_readout("O=C1Nc2ccc(Cl)cc2C1=Cc1ccc(OCc2ccncc2)cc1 (mixture of isomers)")
33
>>> numeric_readout("O=C1Nc2cc(Cl)ccc2C1=Cc1ccc(OCc2ccccn2)cc1 (mixture of isomers)")
20
>>> numeric_readout("O=C1Nc2ccc(F)cc2C1=Cc1ccc(OCc2ccncc2)cc1 (mixture of isomers)")
32.5
>>> numeric_readout("O=C1Nc2ccccc2C1=Cc1ccc(OCc2ccccc2)cc1 (mixture of isomers)")
5.67
>>> numeric_readout("O=C1Nc2ccccc2C1=Cc1ccc(OCc2ccncc2)cc1 (mixture of isomers)")
23.7
>>> numeric_readout("O=C1Nc2cc(Cl)ccc2C1=Cc1ccc(OCc2ccncc2)cc1 (mixture of isomers)")
16.9
>>> numeric_readout("O=C1Nc2ccccc2C1=Cc1ccc(OCc2ccccn2)cc1 (mixture of isomers)")
8.3

Taken from paper PMC11124822.
